biological target: HLA-A*1101 (human); test: inhibition of 125I-labeled standard peptide binding to purified HLA, gel filtration
parameter: binding affinity ratio (IC50 of standard peptide / IC50 of test peptide)
Respond numerically, and do not add a unit to the figure.

Asked: Given LTNILNVLK (modifications not checked) [HPV16 E1 peptide … (position 191, 9 amino acids)] , state its recorded binding affinity ratio (IC50 of standard peptide / IC50 of test peptide).
Given back: 0.42

Continuing:
Asked: Given KAAMLAKFK (modifications not checked) [HPV16 E1 peptide … (position 204, 9 amino acids)] , state its recorded binding affinity ratio (IC50 of standard peptide / IC50 of test peptide).
Given back: 0.18

Asked: Given AICIEKQSR (modifications not checked) [HPV16 E1 peptide … (position 112, 9 amino acids)] , state its recorded binding affinity ratio (IC50 of standard peptide / IC50 of test peptide).
Given back: 0.0057

Asked: Given GMVVLLLVR (modifications not checked) [HPV16 E1 peptide … (position 272, 9 amino acids)] , state its recorded binding affinity ratio (IC50 of standard peptide / IC50 of test peptide).
Given back: 0.0082

Asked: Given LSLHEDEDK (modifications not checked) [HPV16 E1 peptide … (position 620, 9 amino acids)] , state its recorded binding affinity ratio (IC50 of standard peptide / IC50 of test peptide).
Given back: 0.0002

meta.source: patent US7026443
